- SYSTEM: human recombinant IRAK4 protein (Homo sapiens (Human), UniProt Q9NWZ3)
- Sequence (Q9NWZ3 whole entry): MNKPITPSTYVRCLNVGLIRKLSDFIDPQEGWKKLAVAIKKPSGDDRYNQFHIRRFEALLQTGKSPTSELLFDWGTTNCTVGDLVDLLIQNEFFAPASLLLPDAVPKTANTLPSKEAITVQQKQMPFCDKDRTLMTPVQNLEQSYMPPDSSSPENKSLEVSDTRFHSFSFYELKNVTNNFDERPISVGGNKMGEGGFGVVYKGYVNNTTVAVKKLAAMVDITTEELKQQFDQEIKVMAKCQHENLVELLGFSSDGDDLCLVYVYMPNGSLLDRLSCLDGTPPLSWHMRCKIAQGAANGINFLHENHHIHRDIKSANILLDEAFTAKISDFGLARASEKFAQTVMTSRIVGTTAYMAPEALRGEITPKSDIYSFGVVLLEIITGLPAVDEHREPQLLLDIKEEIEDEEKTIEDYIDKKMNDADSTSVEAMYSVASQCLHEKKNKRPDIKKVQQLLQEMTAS
- TEST DESCRIPTION: IRAK4 enzyme assay (mass spectrometry readout)
- MEASUREMENT PARAMETERS: 3 mM ATP, 0.2 nM enzyme; geometric mean of at least n=2, * single experiment
RECORDED METRIC: IC50 (nM)

[1] COc1cc2nn([C@H]3CCC[C@@H](O)C3)cc2cc1C(=O)Nc1cnn2cccnc12 (single isomer, unassigned) [Example 13]
[2] COc1cc2nn([C@H]3CC[C@H](N(C)C(=O)[C@@H](C)O)CC3)cc2cc1C(=O)Nc1cnn2cccnc12
[3] O=C(Nc1cnc2cccnn12)c1cc2cn([C@H]3CC[C@H](O)CC3)nc2cc1OC1CC1
[4] COc1cc2nn([C@H]3CCC[C@@](C)(O)C3)cc2cc1C(=O)Nc1cnn2cccnc12 (single isomer, unassigned) [Example 50]
Sort the entries above by IC50, largest first. Form field (ranking): labels in requested order. 1, 4, 2, 3

----------
- SYSTEM: IRAK4 auto-phosphorylation (Homo sapiens (Human), UniProt Q9NWZ3)
- Sequence (Q9NWZ3 whole entry): as above
- TEST DESCRIPTION: IRAK4 phosphorylation cell assay in IL-1β-stimulated Karpas-299 cells
- MEASUREMENT PARAMETERS: IL-1β 22.7 ng/mL, pIRAK4 (Thr345/Ser346), geometric mean of at least 2 experiments
RECORDED METRIC: IC50 (nM)

As a guide, the following entries are already answered.
COc1cc2nn([C@@H]3CCC4(C[C@H]3C)CN(C(C)=O)C4)cc2cc1C(=O)Nc1cnc2cccnn12 (single isomer, unassigned) [Example 66]    23
COc1cc2nn([C@H]3CC[C@H](O)[C@@H](C)C3)cc2cc1C(=O)Nc1cnc2cccnn12 (single isomer, unassigned) [Example 80]    28
COc1cc2nn([C@@H]3CCC(N(C)C(C)=O)C[C@H]3C)cc2cc1C(=O)Nc1cnn2cccnc12 (single isomer, unassigned) [Example 60]    21
COc1cc2nn([C@H]3CC[C@H](N(C)C(=O)C(C)(C)O)CC3)cc2cc1C(=O)Nc1cnn2cnccc12    35

[1] O=C(Nc1cnn2cccnc12)c1cc2cn(C3CCC4(CC3)CC(O)C4)nc2cc1OC1CC1 (single isomer, unassigned) [Example 47]
[2] COc1cc2nn([C@H]3CC[C@H](N(C)C(=O)[C@@H]4CC[C@@H](O)C4)CC3)cc2cc1C(=O)Nc1cnn2cccnc12 (relative stereo) [Example 113]
Lower value for measured IC50? Options: 1 , 2 Refer to your chosen item by its label in the answer. 2

----------
- SYSTEM: IRAK4 auto-phosphorylation (Homo sapiens (Human))
- TEST DESCRIPTION: IRAK4 phosphorylation cell assay in IL-1β-stimulated Karpas-299 cells
- MEASUREMENT PARAMETERS: IL-1β 22.7 ng/mL, pIRAK4 (Thr345/Ser346), geometric mean of at least 2 experiments
RECORDED METRIC: IC50 (nM)

COc1cc2nn([C@H]3CCC[C@@H](O)C3)cc2cc1C(=O)Nc1cnc2cccnn12 (single isomer, unassigned) [Example 9]    57

[1] COc1cc2nn([C@H]3CC[C@@H](C(=O)N(C)C)CC3)cc2cc1C(=O)Nc1cnc2cccnn12
[2] O=C(Nc1cnn2cccnc12)c1cc2cn(C3CCC4(CC3)CC(O)C4)nc2cc1OC1CC1 (single isomer, unassigned) [Example 46]
[3] COc1cc2nn([C@H]3CC[C@H](N(C)C(=O)[C@@H]4CC[C@@H](O)C4)CC3)cc2cc1C(=O)Nc1cnn2cccnc12 (relative stereo) [Example 112]
Put these in order: smallest IC50 first, largest last. Form field (ranking): labels in requested order. 3, 2, 1

----------
- SYSTEM: UniProt Q9NWZ3
- TEST DESCRIPTION: IRAK4 phosphorylation cell assay in IL-1β-stimulated Karpas-299 cells
- MEASUREMENT PARAMETERS: IL-1β 22.7 ng/mL, pIRAK4 (Thr345/Ser346), geometric mean of at least 2 experiments
pIC50: −log10 of the molar value.
RECORDED METRIC: pIC50

[A] COc1cc2nn([C@@H]3CC[C@](C)(O)C[C@H]3C)cc2cc1C(=O)Nc1cnc2cccnn12
[B] CO[C@H]1C[C@H](Oc2cc3nn(C4CCC5(CC4)CN(C(C)=O)C5)cc3cc2C(=O)Nc2cnc3cccnn23)C1
Return label of the item with the larger pIC50. Candidates: A , B . Refer to your chosen item by its label in the answer. B

[a] COc1cc2nn([C@H]3CCC(N(C)C(C)=O)C[C@@H]3C)cc2cc1C(=O)Nc1cnc2cccnn12 (single isomer, unassigned) [Example 35]
[b] COc1cc2nn(C3CCC4(CC3)CC(C)(O)C4)cc2cc1C(=O)Nc1cnc2cccnn12 (single isomer, unassigned) [Example 5]
Lower value for measured pIC50? Options: a , b Refer to your chosen item by its label in the answer. a
(a: 6.94, b: 7.51)

[P] COc1cc2nn([C@H]3CC[C@H](N(C)C(=O)[C@H](C)O)CC3)cc2cc1C(=O)Nc1cnc2cccnn12
[Q] C[C@H]1C[C@@H](O)CC[C@@H]1n1cc2cc(C(=O)Nc3cnn4cccnc34)c(OC3CC3)cc2n1 (single isomer, unassigned) [Example 45]
Return label of the item with the larger pIC50. Candidates: P , Q . Refer to your chosen item by its label in the answer. P

[P] COc1cc2nn([C@H]3CC[C@H](N(C)C(=O)[C@H](C)O)CC3)cc2cc1C(=O)Nc1cnn2cccnc12
[Q] COc1cc2nn([C@H]3CC[C@H](N(C)C(=O)[C@@H]4CC[C@H](O)C4)CC3)cc2cc1C(=O)Nc1cnn2cccnc12 (relative stereo) [Example 114]
Return label of the item with the larger pIC50. Candidates: P , Q . Refer to your chosen item by its label in the answer. Q

[a] O=C(Nc1cnc2cccnn12)c1cc2cn([C@H]3CC[C@H](O)CC3)nc2cc1OC1CC1
[b] COc1cc2nn([C@H]3CC[C@@H](N(C)C(C)=O)CC3)cc2cc1C(=O)Nc1cnc2cccnn12
[c] O=C(Nc1cnn2cccnc12)c1cc2cn([C@H]3CC[C@@H](O)CC3)nc2cc1OC1CC1
Put these in order: smallest pIC50 first, largest last. Form field (ranking): labels in requested order. b, c, a

[A] COc1cc2nn([C@@H]3CC[C@@H](O)C[C@H]3C)cc2cc1C(=O)Nc1cnc2cccnn12
[B] CC1(O)CC2(CCC(n3cc4cc(C(=O)Nc5cnn6cccnc56)c(OC5CC5)cc4n3)CC2)C1 (single isomer, unassigned) [Example 15]
Return label of the item with the larger pIC50. Candidates: A , B . Refer to your chosen item by its label in the answer. A

[1] O=C(Nc1cnc2cccnn12)c1cc2cn([C@H]3CC[C@@H](O)CC3)nc2cc1OC1CC1
[2] COc1cc2nn([C@H]3CC[C@@H](O)C[C@@H]3C)cc2cc1C(=O)Nc1cnn2cccnc12 (relative stereo) [Example 41]
[3] COc1cc2nn([C@@H]3CCC4(C[C@H]3C)CN(C(C)=O)C4)cc2cc1C(=O)Nc1cnc2cccnn12 (single isomer, unassigned) [Example 67]
[4] CO[C@H]1C[C@@H](Oc2cc3nn(C4CCC5(CC4)CN(C(C)=O)C5)cc3cc2C(=O)Nc2cnc3cccnn23)C1
Highest pIC50 first, then in falling order down to the smallest. Form field (ranking): labels in requested order. 4, 1, 3, 2
(4: 7.51, 1: 7.30, 3: 6.84, 2: 6.48)

[a] COc1cc2nn([C@@H]3CC[C@]4(CC(=O)N(C)C4)C[C@H]3C)cc2cc1C(=O)Nc1cnc2cccnn12 (relative stereo) [Example 73]
[b] COc1cc2nn(C3CCC4(CC3)CN(C(C)=O)C4)cc2cc1C(=O)Nc1cnc2cccnn12
Return label of the item with the larger pIC50. Candidates: a , b . Refer to your chosen item by its label in the answer. b

----------
- SYSTEM: IRAK4 auto-phosphorylation (Homo sapiens (Human), UniProt Q9NWZ3)
- TEST DESCRIPTION: IRAK4 phosphorylation cell assay in IL-1β-stimulated Karpas-299 cells
- MEASUREMENT PARAMETERS: IL-1β 22.7 ng/mL, pIRAK4 (Thr345/Ser346), geometric mean of at least 2 experiments
RECORDED METRIC: IC50 (nM)

As a guide, the following entries are already answered.
COc1cc2nn([C@H]3CCC[C@@](C)(O)C3)cc2cc1C(=O)Nc1cnn2cccnc12 (single isomer, unassigned) [Example 51]    46
COc1cc2nn([C@H]3CC[C@H](N(C)C(=O)[C@@H]4CC[C@H](O)C4)CC3)cc2cc1C(=O)Nc1cnn2cccnc12 (relative stereo) [Example 115]    20
O=C(Nc1cnn2cccnc12)c1cc2cn([C@H]3CCC[C@H](O)C3)nc2cc1OC1CC1 (single isomer, unassigned) [Example 19]    47
COc1cc2nn([C@H]3CC[C@H](C(=O)N(C)C)CC3)cc2cc1C(=O)Nc1cnc2cccnn12    17
COc1cc2nn(C3CCC4(CC3)CC(C)(O)C4)cc2cc1C(=O)Nc1cnc2cccnn12 (single isomer, unassigned) [Example 6]    44
CC(=O)N1CC2(CC[C@@H](n3cc4cc(C(=O)Nc5cnn6cccnc56)c(OC5CC5)cc4n3)[C@@H](C)C2)C1 (single isomer, unassigned) [Example 31]    71
COc1cc2nn([C@H]3CC[C@H](O)[C@H](C)C3)cc2cc1C(=O)Nc1cnc2cccnn12 (single isomer, unassigned) [Example 79]    21
COc1cc2nn([C@@H]3CCC(N(C)C(C)=O)C[C@H]3C)cc2cc1C(=O)Nc1cnc2cccnn12 (single isomer, unassigned) [Example 36]    56

[I] COc1cc2nn([C@@H]3CC[C@]4(CC(=O)N(C)C4)C[C@H]3C)cc2cc1C(=O)Nc1cnc2cccnn12 (relative stereo) [Example 72]
[II] COc1cc2nn([C@H]3CCC(N(C)C(C)=O)C[C@@H]3C)cc2cc1C(=O)Nc1cnc2cccnn12 (single isomer, unassigned) [Example 34]
[III] COc1cc2nn([C@H]3CC[C@H](N(C)C(=O)[C@@H](C)O)CC3)cc2cc1C(=O)Nc1cnn2cccnc12
Put these in order: smallest IC50 first, largest last. Form field (ranking): labels in requested order. I, III, II
(I: 7 nM, III: 16 nM, II: 31 nM)

[I] CC(=O)N1CC2(CC[C@@H](n3cc4cc(C(=O)Nc5cnn6cccnc56)c(OC5CC5)cc4n3)[C@H](C)C2)C1 (single isomer, unassigned) [Example 29]
[II] COc1cc2nn([C@H]3CCC[C@@H](O)C3)cc2cc1C(=O)Nc1cnn2cccnc12 (single isomer, unassigned) [Example 13]
[III] COc1cc2nn(C3CCC(C)(O)CC3)cc2cc1C(=O)Nc1cnc2cccnn12 (single isomer, unassigned) [Example 49]
[IV] CC1(O)CC2(CCC(n3cc4cc(C(=O)Nc5cnn6cccnc56)c(OC5CC5)cc4n3)CC2)C1 (single isomer, unassigned) [Example 16]
[V] COc1cc2nn([C@H]3CC[C@@H](O)CC3)cc2cc1C(=O)Nc1cnc2cccnn12
Put these in order: smallest IC50 first, largest last. Form field (ranking): labels in requested order. I, III, IV, V, II
(I: 31 nM, III: 46 nM, IV: 77 nM, V: 111 nM, II: 816 nM)

Sourced from patent US11866405B2
